test system: MS2 coat protein; experiment: apparent Kd, MS2 coat protein; higher = weaker binding; RNA-MaP array; FMN 200 µM where present; settings: ligand present: flavin mononucleotide; designed as: OFF switch for flavin mononucleotide
# cutoff 20 nM applies to apparent Kd; >= gives yes, < gives no

| input sequence | cat |
| --- | --- |
| UCCUCACAUGAGGAUCACCCAUGUUAGGAUAUCUCGGUGCCCUGCAGGCAGUGGCACCAGAGAAGGAACGUGCA | yes |
| UGAUCGAAAGAUCAUAGAUUCUGCUAGGAUAUGCAGGAGUUGCGCUUUACAUGAGGAUCACCCAUGUAGAAGGAGUAGAGUCUA | no |
| UGAACAAUGUAGAAGGCCCACAUUUAUAUGUAGGGAGGAUAUACAUGAGGAUCACCCAUGUAAAGAGCAAGAGGAUUUGACAGA | no |
| ACAUGAGGAUGAGGAUAUUCAUCCAUGAGGAUAGAAGAAGGCAUACAUGAGGAUCACCCAUGUAUACACAUGAGGAUCCCUUAU | yes |
| AGGAGGUUAGGAUAUGCUGCUCGUCACUUGCGUGAUGAGUAGCAGAAGGAACAUGAGGAUCACCCAUGUAAAGA | yes |
| UGAUUGCCUGUAAGGAUAUCUACGGCCGUUCGCUGGGAGAAGGUACAUGAGGAUCACCCAUGUACAGUCAUGGG | yes |
| GGUACUCAAAGAGUACCAAUACGAACAUGAGGAUCACCCAUGUAGGAUAUGCUACUCAAAGAGUAGCAGAAGGAUAUGAUCCAU | yes |
